system: HSC1; test: relative IC50 (inflection point of fitted dose-response curve, CellTiter-Glo viability, 72 h; top asymptote may be below 50% inhibition); higher = less potent
Please use Fulfilled whenever relative IC50 is not below 1000 nM, and Not fulfilled whenever it is.

Look over these answered cases.
Would you say CC(C)n1cnc2c(NCCc3ccc(O)cc3)nc(-c3csc4ccccc34)nc21 [StemRegenin 1] shows relative IC50 at minimum 1000 nM?
Fulfilled

Decide: relative IC50 of CC(=O)c1c(C)c2cnc(Nc3ccc(N4CCNCC4)cn3)nc2n(C2CCCC2)c1=O [Palbociclib] >= 1000 nM?
Not fulfilled

Hi team, for Nc1cc(C(F)(F)F)c(-c2cc(N3CCOCC3)nc(N3CCOCC3)n2)cn1 [Buparlisib] , is the recorded relative IC50 at or above 1000 nM?
Fulfilled

Does the compound O=C(Cc1ccc(-c2ccc(OCCN3CCOCC3)cc2)cn1)NCc1ccccc1 [KX2-391] have recorded relative IC50 that is 1000 nM or more?
Not fulfilled

Answer whether relative IC50 of CC(C)(C#N)c1cc(Cn2cncn2)cc(C(C)(C)C#N)c1 [Anastrozole] is greater than or equal to 1000 nM.
Fulfilled

---
Identify whether the reported relative IC50 of the following compound is 1000 nM or greater: CC(=O)N(O)CCCCCNC(=O)CCC(=O)N(O)CCCCCNC(=O)CCC(=O)N(O)CCCCCN [Deferoxamine aq]
Fulfilled

Confirm if relative IC50 reported for the compound Cc1c(N)nc([C@H](CC(N)=O)NC[C@H](N)C(N)=O)nc1C(=O)N[C@H](C(=O)N[C@H](C)[C@@H](O)[C@H](C)C(=O)N[C@H](C(=O)NCCc1nc(-c2nc(C(=O)NCCC[S+](C)C)cs2)cs1)[C@@H](C)O)[C@@H](O[C@@H]1O[C@@H](CO)[C@@H](O)[C@H](O)[C@@H]1O[C@H]1O[C@H](CO)[C@@H](O)[C@H](OC(N)=O)[C@@H]1O)c1c[nH]cn1 [Bleomycin] is 1000 nM or above.
Not fulfilled

Threshold query (relative IC50 >= 1000 nM) on CCCCCOC(=O)Nc1nc(=O)n([C@@H]2O[C@H](C)[C@@H](O)[C@H]2O)cc1F [Capecitabine]
Fulfilled
